# system: T1, human DSG2 on cells (HeLa cells; polarized T84 cells) (human, UniProt Q14126 50-1118)
# T1 construct: whole, on cells; also called HeLa cells, which express DSG2
# T1 sequence: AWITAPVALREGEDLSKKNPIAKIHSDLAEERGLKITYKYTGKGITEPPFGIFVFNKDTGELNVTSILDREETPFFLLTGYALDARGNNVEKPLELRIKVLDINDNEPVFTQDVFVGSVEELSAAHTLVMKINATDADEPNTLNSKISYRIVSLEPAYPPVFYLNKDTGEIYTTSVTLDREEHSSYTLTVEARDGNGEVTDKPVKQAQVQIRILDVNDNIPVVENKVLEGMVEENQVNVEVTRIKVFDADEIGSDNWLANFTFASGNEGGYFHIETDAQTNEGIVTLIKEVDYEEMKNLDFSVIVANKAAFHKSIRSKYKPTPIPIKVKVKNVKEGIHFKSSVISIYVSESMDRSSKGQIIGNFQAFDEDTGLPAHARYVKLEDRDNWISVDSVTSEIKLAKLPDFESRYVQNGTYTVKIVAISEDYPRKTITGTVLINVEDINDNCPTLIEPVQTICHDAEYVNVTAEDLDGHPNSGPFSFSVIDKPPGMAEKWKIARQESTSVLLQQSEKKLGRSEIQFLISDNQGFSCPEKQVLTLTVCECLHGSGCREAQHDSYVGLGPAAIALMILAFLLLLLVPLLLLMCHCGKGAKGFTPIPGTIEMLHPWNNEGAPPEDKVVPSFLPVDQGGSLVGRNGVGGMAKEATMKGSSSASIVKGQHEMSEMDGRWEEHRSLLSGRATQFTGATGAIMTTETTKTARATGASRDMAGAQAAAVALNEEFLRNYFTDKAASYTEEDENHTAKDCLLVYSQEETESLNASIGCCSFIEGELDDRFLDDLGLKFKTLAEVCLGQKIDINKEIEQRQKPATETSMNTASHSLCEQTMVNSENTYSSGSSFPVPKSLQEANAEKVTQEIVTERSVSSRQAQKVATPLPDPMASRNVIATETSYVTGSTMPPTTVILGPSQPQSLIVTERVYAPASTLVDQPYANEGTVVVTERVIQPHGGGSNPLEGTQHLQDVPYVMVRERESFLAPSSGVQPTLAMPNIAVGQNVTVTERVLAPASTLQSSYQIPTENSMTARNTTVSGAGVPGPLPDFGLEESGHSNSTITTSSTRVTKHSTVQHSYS
# assay notes: attachment of 3H-labelled Ad3 virus (competitor) to HeLa cells pre-incubated with the dimeric knob
endpoint label: Inhibition of attachment in the presence of dimeric knob (JO-1 = 100%)
Entry rule: numbers only, all in %.

1) dimeric Ad3 fiber knob mutant L296R (designed binder) MKVSALKEKVSALKEKVSALKEKVSALKEKVSALKEGSGGGSGGGSGGGSNSIALKNNTLWTGPKPEANCIIEYGKQNPDSKLTLILVKNGGIVNGYVTLMGASDYVNTLFKNKNVSINVELYFDATGHILPDSSSLKTDLELKYKQTADFSARGFMPSTTAYPFVLPNAGTHNENYIFGQCYYKASDGALFPLEVTVMLNKRLPDSRTSYVMTFLWSLNAGRAPETTQATLITSPFTFSYIREDD ... 73.7

Turning to the following binder.
Query: Entry under review: dimeric Ad3 fiber knob mutant N186D, D261N (designed binder, also called combination of N186D and D261N) MKVSALKEKVSALKEKVSALKEKVSALKEKVSALKEGSGGGSGGGSGGGSNSIALKNNTLWTGPKPEANCIIEYGKQNPDSKLTLILVKNGGIVNGYVTLMGASDYVNTLFKDKNVSINVELYFDATGHILPDSSSLKTDLELKYKQTADFSARGFMPSTTAYPFVLPNAGTHNENYIFGQCYYKASNGALFPLEVTVMLNKRLPDSRTSYVMTFLWSLNAGLAPETTQATLITSPFTFSYIREDD . Reported Inhibition of attachment in the presence of dimeric knob (JO-1 = 100%)?
Reply: 23.5
